system: DIV17; experiment: qHTS profiling for inhibitors of Plasmodium falciparum proliferation (AID 504749); also: nearly all actives have a fitted effect of over 60% in size; settings: P. falciparum in erythrocytes, SYBR Green DNA, 72 h; series mostly up to 12.8 µM
Results filed as inconclusive are left out. Active and inactive are the calls of the source. Calls follow the shape of the dose curve; as a rule, active = well fitted inhibition curve with a large enough effect; inconclusive = small, poorly fitted or top-dose-only effect; inactive = flat fitted curve, though single readings scatter.
Outcome codes: YES (active), NO (inactive)

1. CC(=O)OCC(=O)[C@@]12OC(C)(C)O[C@@H]1C[C@H]1[C@H]3C[C@H](F)C4=CC(=O)C=C[C@@]4(C)[C@]3(F)[C@H](O)C[C@@]12C : NO
2. C1CCN2C[C@@H]3C[C@@H](CN4CCCC[C@H]34)[C@H]2C1 : NO
3. NC(C(=O)O)[C@@H]1CC(Cl)=NO1 (stereo partly specified) : YES
4. CC[C@H]1NC(=O)c2cc(S(N)(=O)=O)c(Cl)cc2N1 : NO
5. NS(=O)(=O)c1cc2c(cc1Cl)N[C@@H](CC1CCCC1)NS2(=O)=O : NO
6. CN(C)CCCOC1C(C(O)CO)OC2OC(C)(C)O[C@@H]21 (stereo partly specified) : NO
7. CCCC(=O)O[C@]1(C(=O)CO)CCC2[C@@H]3CCC4=CC(=O)CC[C@]4(C)C3C(O)C[C@]21C (stereo partly specified) : NO
8. CC(C)=CCC[C@](C)(O)C1CC=C(C)CC1 (stereo partly specified) : NO
9. CCCC[C@H](CC)CN1CN(C[C@@H](CC)CCCC)CC(C)(N)C1 : NO
10. CC1(C)S[C@H]2C(NC(=O)[C@@H](N)c3ccc(O)cc3)C(=O)N2[C@@H]1C(=O)O (stereo partly specified) : NO
11. COc1cc2nc(N3CCN(C(=O)[C@@H]4CCCO4)CC3)nc(N)c2cc1OC : NO
12. CO[C@H]1[C@H](O[C@H]2O[C@@H](C)[C@@H](O[C@@H]3C[C@](C)(O)[C@H](O)[C@H](C)O3)[C@@H](N(C)C)[C@@H]2O)[C@@H](CC=O)C[C@@H](C)[C@@H](O[C@H]2CC[C@H](N(C)C)[C@H](C)O2)/C=C\C=C/C[C@@H](C)OC(=O)C[C@H]1O : NO
13. COc1ccc(-c2cc(=O)c3c(O)cc(O[C@H]4OC(COC5OC(C)C(O)C(O)[C@H]5O)C(O)C(O)C4O)cc3o2)cc1O (stereo partly specified) : NO
14. O=C1O[C@H](CN2CCOCC2)CN1/N=C\c1ccc([N+](=O)[O-])o1 : NO
15. C[C@H](CCC(=O)O)[C@H]1CC[C@@H]2[C@@H]3[C@@H](O)C[C@H]4C[C@@H](O)CC[C@@]4(C)[C@H]3CC[C@@]21C : NO
16. CC[C@H](CO)NCCN[C@@H](CC)CO : NO
17. CC1CCC(C(C)C)C(=O)C1 (stereo unspecified) : NO
18. O=C(O)[C@@H]1CCCN1 : NO
19. CCOC(=O)[C@H](CCc1ccccc1)N[C@@H](C)C(=O)N1[C@H](C(=O)O)C[C@H]2CCC[C@@H]21 : NO
20. CNC1C(OC2C(O[C@@H]3C(O)C(O)[C@@H](N=C(N)N)C(O)C3N=C(N)N)OC(C)[C@@]2(O)CO)OC(CO)C(O)C1O (stereo partly specified) : NO
21. COCC(=O)Nc1c(I)c(C(=O)NC[C@@H](O)CO)c(I)c(C(=O)N(C)C[C@@H](O)CO)c1I : NO
22. CC(C)C1CCC(C(=O)NC(Cc2ccccc2)C(=O)O)CC1 (stereo unspecified) : NO
23. CN1CC(=O)N=C1N : NO
24. CCC(=O)O[C@@]1(C(=O)CCl)C(C)CC2C3CCC4=CC(=O)C=C[C@@]4(C)[C@]3(F)C(O)C[C@]21C (stereo partly specified) : YES
25. CN1C(=O)C[C@H](c2ccccc2)C1=O : NO
26. CC(=O)[C@@H]1CC[C@@H]2[C@@H]3C[C@H](C)C4=CC(=O)CC[C@@]4(C)[C@H]3[C@H](O)C[C@]21C : NO
27. CC[C@](C)(CN(C)C)OC(=O)c1ccccc1 : NO
28. CCC1OC(=O)C(C)[C@@H](O[C@H]2C[C@@](C)(OC)C(O)C(C)O2)C(C)[C@@H](O[C@@H]2OC(C)CC(N(C)C)C2O)[C@@](C)(O)CC(C)C(=O)[C@@H](C)C(O)[C@]1(C)O (stereo partly specified) : NO
29. NS(=O)(=O)c1cc2c(cc1C(F)(F)F)N[C@H](Cc1ccccc1)NS2(=O)=O : NO
30. Cc1onc(-c2ccccc2Cl)c1C(=O)N[C@H]1C(=O)N2[C@H]1SC(C)(C)[C@H]2C(=O)O : NO
31. CC(=O)O[C@@]1(C(C)=O)CCC2C3CC(C)C4=CC(=O)CC[C@@]4(C)C3CC[C@]21C (stereo partly specified) : NO
32. C[C@]12CCC(=O)C=C1CCC1C2C(=O)C[C@]2(C)C1CC[C@]2(O)C(=O)CO (stereo partly specified) : NO
33. Clc1ccc([C@H](Cn2ccnc2)OCc2csc3c(Cl)cccc23)c(Cl)c1 : YES
34. CCC(C)C(=O)OC1CCC=C2C=CC(C)C(CCC3CC(O)CC(=O)O3)[C@@H]21 (stereo partly specified) : NO
35. O=C(O)[C@@H]1[C@@H]2C[C@H]3c4[nH]c5ccccc5c4CCN3C[C@@H]2CC[C@@H]1O : YES
36. CC(=O)C[C@H](c1ccc([N+](=O)[O-])cc1)c1c(O)c2ccccc2oc1=O : NO
